method description: qHTS assay to identify small molecule agonists of the RXR signaling pathway - cell viability counter screen (AID 1159529); further: nearly all actives have a fitted effect of over 50% in size; further: potency means the concentration at half of the fitted maximal effect
test context: RXR-alpha-bla HEK293T viability, CellTiter-Glo, 16 h; series mostly up to 76.8 µM
Excerpt: National Center for Advancing Translational Sciences [NCATS] NIH Chemical Genomics Center [NCGC] U.S. Environmental Protection Agency [EPA] National Institutes of Environmental Health Sciences [NIEHS] National Toxicology Program [NTP] U.S. Food and Drug Administration [FDA] The Retinoid X receptor (RXR), a nuclear hormone receptor expressed in liver, spleen, placenta, epidermis, central nervous system. […]
Records with an inconclusive call do not appear. Activity calls are given as the source filed them. The call rests on the fitted dose curve; in most records, active means well fitted cell-killing curve with a large enough effect in the repeat runs; inconclusive means weak or mixed curves, or effect the other way; inactive means no such curve, though single readings can be large or run the other way.
readout kind: Potency

CCCCCCCOC(=O)c1ccc(O)cc1; 55 µM (active)
Cc1cccc(N(C)C)c1; inactive
O=C1OC(=O)c2cccc3cccc1c23; inactive
Cn1cnc2ncnc(N)c21; inactive
Clc1nc2ccccc2s1; inactive
CCN=C1C=CC(=C(c2ccc(N(CC)CC)cc2)c2ccc(N(CC)CC)cc2)c2ccccc21; 15.4 µM (active)
O=C(O)c1cccc(Cl)n1; inactive
Clc1cc(Cl)c(-c2c(Cl)c(Cl)cc(Cl)c2Cl)cc1Cl; inactive

# batch size: 2; output Potency per entry
1. CC[N+](CC)(CC)Cc1ccccc1
2. Oc1cc2ccccc2cc1O

Reply:
1: inactive; 2: inactive

----------
system name: Cytochrome P450 2C19 (Homo sapiens)
method description: Cytochrome P450 Family 2 Subfamily C Member 19 (CYP2C19) small molecule antagonists: luciferase reporter qHTS assay (AID 1671197); further: nearly all actives have a fitted effect of over 65% in size
test context: P450-Glo CYP2C19 enzyme, luciferin luminescence, 1 h; series mostly up to 115 µM
Inconclusive results are not listed. Calls of active or inactive are those of the source. Calls follow the shape of the dose curve; as a rule, active = well fitted inhibition curve with a large enough effect in the repeat runs; inconclusive = weak or mixed curves; inactive = no such curve, though single readings can be large or run the other way.
Your reply should match one of these outcome classes. yes (1) = active, no (0) = inactive

Worked examples follow.
NC1(c2ccc(-c3nc4ccn5c(=O)[nH]nc5c4cc3-c3ccccc3)cc2)CCC1; no (0)
SCCCCCCCCS; no (0)
Cc1cccc(C)n1; no (0)

Query: For `CN(C)c1ccc(N=Nc2ccccc2C(=O)O)cc1` , what call appears in the results of this test?
Reply: yes (1)

Query: Give the logged outcome of this assay for the following compound: CC1CNCC(C)O1 (stereo not drawn)
Reply: no (0)

Query: What call does the record list for `O=S(=O)(O)CCCN1CCOCC1` ?
Reply: no (0)

Query: Given `CCOC(=O)C1=C(C)NC(C)=C(C(=O)OCC)C1c1ccccc1/C=C/C(=O)OC(C)(C)C` , state the outcome it received in this test.
Reply: yes (1)

Query: Hello, I am checking results. What call was entered for `CCO[Si](CCCSSSSCCC[Si](OCC)(OCC)OCC)(OCC)OCC` ?
Reply: yes (1)

Query: Field: outcome | Entry: `C/C=C/c1ccc(OC)c(OC)c1`
Reply: yes (1)

Query: Could you please tell me the result logged for `CCCN(CCc1cccs1)[C@H]1CCc2c(O)cccc2C1` in this assay?
Reply: yes (1)

Query: Per the assay record, what outcome was assigned to `O=C1C=CC(=O)N1c1ccccc1` ?
Reply: yes (1)

Query: Give the logged outcome of this assay for the following compound: `CCOC(=O)CN`
Reply: no (0)

Query: Which outcome was assigned to C=C1C(C)(C)[C@@]2(Cl)C(Cl)[C@]1(Cl)C(Cl)(Cl)C2(Cl)Cl (stereo partly drawn) in this test?
Reply: yes (1)

----------
method description: qHTS assay to identify small molecule agonists of the AP-1 signaling pathway (AID 1159526); further: on the % scale 0 is the no-effect control and ±100 the full control effect
test context: ME-180 (cervical carcinoma) AP-1-bla reporter, beta-lactamase FRET ratio, 5 h; series mostly up to 76.8 µM
Results filed as inconclusive are left out. Calls of active or inactive are those of the source. Calls come from the whole dose curve.
readout kind: activation

For orientation, consider the following solved cases.
CCOC(OCC)C(=O)c1ccccc1; inactive
CCCCOc1ccc(C(=O)CCN2CCCCC2)cc1; inactive
CO[Si](CCCNCCNCCN)(OC)OC; inactive
CCCCCCCC(C)=O; inactive
Clc1cc(Cl)c(-c2c(Cl)c(Cl)cc(Cl)c2Cl)cc1Cl; inactive

Below are 8 compounds. Give each one its activation.
1. CCOC(=O)CN
2. CC(C)C(=O)OCc1ccccc1
3. [O]=[Zr]
4. CC(C)=CC1CC(C)CCO1 (centres undefined)
5. Cc1ccc(O)cn1
6. C=C(C)C(=O)OCCC[Si](Cl)(Cl)Cl
7. COC(=O)[C@]1(C)CCC[C@@]2(C)[C@H]1CC=C1C=C(C(C)C)CC[C@@H]12
8. CO[Si](CCC1CCC2OC2C1)(OC)OC (centres undefined)

Reply:
inactive
inactive
inactive
inactive
inactive
inactive
inactive
inactive

Query: Quickly give me recorded activation for COc1cccc(CCc2ccccc2OCC(CN(C)C)OC(=O)CCC(=O)O)c1 (centres undefined)
Reply: inactive

----------
method description: qHTS assay to identify small molecule antagonists of the estrogen receptor alpha (ER-alpha) signaling pathway using the BG1 cell line in the presence of 0.1 nM 17-beta-estradiol - cell viability counter screen (AID 1259241); further: nearly all actives have a fitted effect of over 40% in size
test context: VM7Luc4E2 (BG1) viability, CellTiter-Fluor protease, 22 h, 0.1 nM estradiol agonist added; series mostly up to 92.4 µM
Records with an inconclusive call do not appear. The source made the active and inactive calls. Calls follow the shape of the dose curve; as a rule, active = well fitted cell-killing curve with a large enough effect in the repeat runs; inconclusive = weak or mixed curves, or effect the other way; inactive = flat fitted curve, though single readings scatter.
Just give me one of these, please: T = active, F = inactive

Solved entries (count: 6):
CCOC(=O)CN; F
CC(C)OC(=O)c1cc(C(=O)OC(C)C)cc([N+](=O)[O-])c1; F
COc1cccc(CCc2ccccc2OCC(CN(C)C)OC(=O)CCC(=O)O)c1 (centres undefined); F
CC(C)(C)c1cc(CCC(=O)NCCCCCCNC(=O)CCc2cc(C(C)(C)C)c(O)c(C(C)(C)C)c2)cc(C(C)(C)C)c1O; F
C=CC(=C)CCC=C(C)C; F
CCCC(O)C(O)CO (centres undefined); F

Query: Which outcome was assigned to `C[C@H]1O[C@@H](O[C@H]2[C@@H](O)C[C@H](O[C@H]3[C@@H](O)C[C@H](O[C@H]4CC[C@@]5(C)[C@H](CC[C@@H]6[C@@H]5C[C@@H](O)[C@]5(C)[C@@H](C7=CC(=O)OC7)CC[C@]65O)C4)O[C@@H]3C)O[C@@H]2C)C[C@H](O)[C@@H]1O` in this test?
Reply: F

Query: # outcome recorded in this test, key = `CNCC[C@H](Oc1cccc2ccccc12)c1cccs1`
Reply: F

Query: Could you kindly confirm the outcome this assay logged for Clc1ccc(C(Cn2ccnc2)OCc2c(Cl)cccc2Cl)c(Cl)c1 (centres undefined) ?
Reply: F

Query: Could you please tell me the result logged for `CCN(CC)c1ccc(N)cc1` in this assay?
Reply: T

Query: GET /call?item= `CCc1c(C(=O)O)c(=O)cnn1-c1ccc(Cl)cc1` returns the recorded outcome of this test.
Reply: F

Query: Tell me the assay call for `O=C(Oc1ccccc1)c1cccc(C(=O)Oc2ccccc2)c1` please.
Reply: F

Query: Please state the recorded outcome for this compound: `CC(C)(c1cc(Br)c(O)c(Br)c1)c1cc(Br)c(O)c(Br)c1`
Reply: F

----------
Assignment: determine reported viability change, negative = cytotoxic for the given molecules.
method description: qHTS assay to identify small molecule agonists of the constitutive androstane receptor (CAR) signaling pathway - cell viability counter screen (AID 1224836); further: on the % scale 0 is the no-effect control and ±100 the full control effect; nearly all actives have a fitted effect of over 45% in size
test context: HepG2-CYP2B6-hCAR viability, CellTiter-Fluor, 23 h, PK11195 added to every well; series mostly up to 92.4 µM
Records with an inconclusive call do not appear. Activity calls are given as the source filed them. Calls come from the whole dose curve; as a rule, active = well fitted cell-killing curve with a large enough effect in the repeat runs; inconclusive = weak or mixed curves, or effect the other way; inactive = flat fitted curve, though single readings scatter.

O=C=NCc1cccc(CN=C=O)c1; -4.88% [at 19 µM] (inactive)
O=S(O)O; 7.71% [at 19 µM] (inactive)
CCCCCCCCCCCCCCCCCO; 0.185% [at 19 µM] (inactive)
C=CC(=C)CC/C=C(\C)CCC=C(C)C; 4.77% [at 19 µM] (inactive)
N[C@@H](CSSC[C@H](N)C(=O)O)C(=O)O; 5.67% [at 0.349 µM] (inactive)

Query: For `COc1cc(C(C)C)c2c(c1)S(=O)(=O)N(COc1cc(=O)n3cccc(OCCN4CCCCC4)c3n1)C2=O` , write its viability change, negative = cytotoxic.
Reply: -20.4% [at 19 µM] (inactive)

----------
system name: Cytochrome P450 2C9 (Homo sapiens) (UniProt P11712)
Sequence (P11712 whole entry, looked up): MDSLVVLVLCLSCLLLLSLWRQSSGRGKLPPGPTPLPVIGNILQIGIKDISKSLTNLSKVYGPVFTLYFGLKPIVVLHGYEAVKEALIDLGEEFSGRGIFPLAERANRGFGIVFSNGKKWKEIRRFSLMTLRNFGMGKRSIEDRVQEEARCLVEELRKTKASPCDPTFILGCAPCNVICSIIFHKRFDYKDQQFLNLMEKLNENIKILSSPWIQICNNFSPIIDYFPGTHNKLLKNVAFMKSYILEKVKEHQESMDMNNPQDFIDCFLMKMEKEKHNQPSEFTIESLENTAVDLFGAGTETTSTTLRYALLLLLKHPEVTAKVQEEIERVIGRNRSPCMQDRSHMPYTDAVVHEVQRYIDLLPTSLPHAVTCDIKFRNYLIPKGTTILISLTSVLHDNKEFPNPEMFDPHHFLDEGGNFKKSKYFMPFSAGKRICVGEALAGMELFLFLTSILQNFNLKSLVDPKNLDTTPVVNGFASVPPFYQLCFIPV
method description: Cytochrome P450 Family 2 Subfamily C Member 9 (CYP2C9) small molecule antagonists: luciferase reporter qHTS assay (AID 1671198); further: nearly all actives have a fitted effect of over 50% in size
test context: P450-Glo CYP2C9 enzyme assay, luciferin luminescence; series mostly up to 115 µM
Results filed as inconclusive are left out. The source made the active and inactive calls. Calls come from the whole dose curve; as a rule, active = well fitted inhibition curve with a large enough effect in the repeat runs; inconclusive = weak or mixed curves; inactive = no such curve, though single readings can be large or run the other way.
Allowed answers: label 1 = active, label 0 = inactive

Some entries whose results are on file:
CCOC(=O)CN; label 0
COc1cc(C(=O)NS(=O)(=O)c2ccccc2C)ccc1Cc1cn(C)c2ccc(NC(=O)OC3CCCC3)cc12; label 1

Query: Test call for this compound, please: `Cc1cccc(N(C)C)c1`
Reply: label 0

Query: Please state the recorded outcome for this compound: `CC1(C)COCN1`
Reply: label 0

Query: Which outcome was assigned to CCN(CC)CCOc1ccc(C(O)(Cc2ccc(Cl)cc2)c2ccc(C)cc2)cc1 (stereo unspecified) in this test?
Reply: label 1

Query: Outcome logged for `CC=O` in this assay:
Reply: label 0

Query: Identify the outcome logged in this assay for the compound shown: `CC(C)c1ccc(O)c(C(C)C)c1`
Reply: label 1

Query: Tell me the recorded outcome of this test for `COc1nccnc1CC(C)C` .
Reply: label 0

Query: What is the recorded call for this compound in the test? `CC(C)=C1CC[C@@H](C)CC1=O`
Reply: label 0

Query: Which outcome was assigned to `OCCCS` in this test?
Reply: label 0

Query: Per the assay record, what outcome was assigned to `O=C(O)CCCCCCC(=O)O` ?
Reply: label 0

Query: Check the results log: what was the call for `CC1=C(/C=C/C(C)=C/C=C/C(C)=C\C=O)C(C)(C)CCC1` ?
Reply: label 1

Query: Please share the test call associated with `CCC1CCCCC1` .
Reply: label 0

Query: Kindly provide the recorded test outcome for the following compound: `Brc1ccccn1`
Reply: label 0

Query: Per the assay record, what outcome was assigned to `CCC(=O)OCCc1ccccc1` ?
Reply: label 1

Query: What did this assay record as the result for `c1ccc(Sc2ccccc2)cc1` ?
Reply: label 0
